- Tested on: UniProt P50406
- Sequence (P50406 whole entry): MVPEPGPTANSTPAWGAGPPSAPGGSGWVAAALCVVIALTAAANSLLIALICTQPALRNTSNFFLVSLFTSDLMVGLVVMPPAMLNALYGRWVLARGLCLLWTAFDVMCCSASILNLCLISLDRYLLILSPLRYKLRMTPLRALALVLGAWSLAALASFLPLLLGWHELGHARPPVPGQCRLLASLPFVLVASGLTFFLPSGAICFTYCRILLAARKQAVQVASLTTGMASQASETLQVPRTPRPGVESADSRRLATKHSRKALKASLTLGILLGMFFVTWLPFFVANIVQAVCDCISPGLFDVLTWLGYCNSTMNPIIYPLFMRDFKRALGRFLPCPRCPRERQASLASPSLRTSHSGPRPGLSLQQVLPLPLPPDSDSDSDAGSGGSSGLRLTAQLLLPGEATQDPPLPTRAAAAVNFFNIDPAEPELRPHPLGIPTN
- Run description: radioligand binding assay (SPA format), [N-methyl-3H]-LSD
- Experimental parameters: read-out: human 5HT6 Ki; human 5-HT6 receptor membranes, 10 nM [3H]-LSD
pKi: −log10 of the molar value.
Please use True whenever pKi is not below 8, and False whenever it is.

Use the examples below as a reference point.
stdin: # bool: pKi of COc1cc(S(=O)(=O)c2cccc(OCc3ccccc3)c2)cc2c3c(n(C)c12)CC1CCC3N1 (stereo not drawn) >= 8
stdout: True

stdin: # bool: pKi of COc1cc(S(=O)(=O)n2ccc3ccccc32)cc2c3c(n(C)c12)CC1CCC3N1 (stereo not drawn) [Example 240] >= 8
stdout: True

stdin: # bool: pKi of Cn1c2c(c3cc(S(=O)(=O)c4cccc5cccnc45)ccc31)C1CCC(C2)N1 (stereo not drawn) [Example 113] >= 8
stdout: False

Next:
stdin: # bool: pKi of CC(C)N1C2CCC1c1c(n(C)c3ccc(S(=O)(=O)c4ccc5[nH]ccc5c4)cc13)C2 (stereo not drawn) >= 8
stdout: True

stdin: # bool: pKi of Cn1c2c(c3cc(S(=O)(=O)c4ccccc4)cc(OCc4ccccn4)c31)C1CCC(C2)N1 (stereo not drawn) >= 8
stdout: False

stdin: # bool: pKi of Cn1c2c(c3cc(S(=O)(=O)c4ccccc4)cc(OC(F)(F)F)c31)C1CCC(C2)N1 (stereo not drawn) >= 8
stdout: False

stdin: # bool: pKi of Cc1cc(S(=O)(=O)c2cn(C)c3ccccc23)cc2c3c(n(C)c12)CC1CCC3N1 (stereo not drawn) >= 8
stdout: True
